# Bliss excess listing for each entry below
Tested on: KP-4 (Pancreatic Carcinoma);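 further: after 72 h of two-drug dosing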
Experiment: Bliss excess, mean over the matrix (fraction); higher = more synergy

compound	Bliss excess
CC1(C)CCC(CN2CCN(c3ccc(C(=O)NS(=O)(=O)c4ccc(NCC5CCOCC5)c([N+](=O)[O-])c4)c(Oc4cnc5[nH]ccc5c4)c3)CC2)=C(c2ccc(Cl)cc2)C1 [Venetoclax] + C=CCn1c(=O)c2cnc(Nc3ccc(N4CCN(C)CC4)cc3)nc2n1-c1cccc(C(C)(C)O)n1 [AZD1775] (first compound max 1 µM, partner max 1 µM)	-0.0385
NC1(C(=O)N[C@@H](CCO)c2ccc(Cl)cc2)CCN(c2ncnc3[nH]ccc23)CC1 [Capivasertib] + C[C@@H]1COCCN1C2=NC(=NC(=C2)C3(CC3)[S@](=N)(=O)C)C4=C5C=CNC5=NC=C4 [AZD6738] (first compound max 10 µM, 7x7, partner max 10 µM)	-0.0371
CN(CCO)CC[C@H](CSc1ccccc1)Nc1ccc(S(=O)(=O)NC(=O)c2ccc(N3CCC([C@@H](O)c4ccccc4-c4ccc(Cl)cc4)CC3)cc2)cc1S(=O)(=O)C(F)(F)F [AZD4320] + CCN(CCO)CCCOc1ccc2c(Nc3cc(CC(=O)Nc4cccc(F)c4)[nH]n3)ncnc2c1 [AZD2811] (first compound max 1 µM, 7x7, partner max 1 µM)	-0.021
C[C@@H](Nc1cc(F)cc(F)c1)c1cc(C(=O)N(C)C)cc2c(=O)cc(N3CCOCC3)oc12 [AZD8186] + CC(=O)c1c(C)c2cnc(Nc3ccc(N4CCNCC4)cn3)nc2n(C2CCCC2)c1=O [Palbociclib] (first compound max 10 µM, 7x7, partner max 10 µM)	0.0976
C[C@@H](c1ccc2nccn2c1)n1nnc2ncc(-c3cnn(C)c3)nc21 [Savolitinib] + CC1(C)CCC(CN2CCN(c3ccc(C(=O)NS(=O)(=O)c4ccc(NCC5CCOCC5)c([N+](=O)[O-])c4)c(Oc4cnc5[nH]ccc5c4)c3)CC2)=C(c2ccc(Cl)cc2)C1 [Venetoclax] (first compound max 1 µM, 7x7, partner max 1 µM)	-0.0556
Cc1cc2ncnn2cc1Nc1ncc2c(n1)n(C1CCOCC1)c(=O)n2C [AZD7648] + C=CCn1c(=O)c2cnc(Nc3ccc(N4CCN(C)CC4)cc3)nc2n1-c1cccc(C(C)(C)O)n1 [AZD1775] (first compound max 10 µM, partner max 1 µM)	0.0217
Cc1cc2ncnn2cc1Nc1ncc2c(n1)n(C1CCOCC1)c(=O)n2C [AZD7648] + O=C(c1cc(Cc2n[nH]c(=O)c3ccccc23)ccc1F)N1CCN(C(=O)C2CC2)CC1 [Olaparib] (first compound max 10 µM, 7x7, partner max 10 µM)	-0.0225
